experiment: Solubility of insoluble drugs in 16% SBECD aqueous solution (Example 27); details: 16% SBECD aqueous solution, aqueous with cosolvent or surfactant or cyclodextrin, thermodynamic from solid
Counter-ions that a name gives are not always drawn.
Returns met if the recorded solubility is greater than or equal to 4000 µg/mL, and not met otherwise.

Query block: Does solubility meet or surpass 4000 µg/mL for CC(C)Cc1ccc(C(C)C(=O)O)cc1 (centres unmarked) [Ibuprofen] ?
Result block: not met

Query block: Next compound: CC[C@@]1(O)C(=O)OCc2c1cc1n(c2=O)Cc2cc3ccccc3nc2-1 [Camptothecin]
Result block: not met

Query block: Next compound: Oc1ccc(C=Cc2cc(O)cc(O)c2)cc1 [Resveratrol]
Result block: met

Query block: Next compound: C[C@@H](O[C@H]1OCCN(Cc2n[nH]c(=O)[nH]2)[C@H]1c1ccc(F)cc1)c1cc(C(F)(F)F)cc(C(F)(F)F)c1 [Aprepitant]
Result block: not met

Query block: Next compound: CCc1c2c(nc3ccc(OC(=O)N4CCC(N5CCCCC5)CC4)cc13)-c1cc3c(c(=O)n1C2)COC(=O)[C@]3(O)CC [Irinotecan HCl]
Result block: not met

Query block: Next compound: CC[C@@H]([C@H](C)O)n1ncn(-c2ccc(N3CCN(c4ccc(OC[C@@H]5CO[C@@](Cn6cncn6)(c6ccc(F)cc6F)C5)cc4)CC3)cc2)c1=O [Posaconazole]
Result block: not met

Query block: Next compound: C[C@@H](c1ncncc1F)[C@](O)(Cn1cncn1)c1ccc(F)cc1F [Voriconazole]
Result block: met

Origin of values: patent US11541006B2
